pIC50 values by entry
- Tgt: UniProtKB P07949
- Sequence (P07949 29-1114): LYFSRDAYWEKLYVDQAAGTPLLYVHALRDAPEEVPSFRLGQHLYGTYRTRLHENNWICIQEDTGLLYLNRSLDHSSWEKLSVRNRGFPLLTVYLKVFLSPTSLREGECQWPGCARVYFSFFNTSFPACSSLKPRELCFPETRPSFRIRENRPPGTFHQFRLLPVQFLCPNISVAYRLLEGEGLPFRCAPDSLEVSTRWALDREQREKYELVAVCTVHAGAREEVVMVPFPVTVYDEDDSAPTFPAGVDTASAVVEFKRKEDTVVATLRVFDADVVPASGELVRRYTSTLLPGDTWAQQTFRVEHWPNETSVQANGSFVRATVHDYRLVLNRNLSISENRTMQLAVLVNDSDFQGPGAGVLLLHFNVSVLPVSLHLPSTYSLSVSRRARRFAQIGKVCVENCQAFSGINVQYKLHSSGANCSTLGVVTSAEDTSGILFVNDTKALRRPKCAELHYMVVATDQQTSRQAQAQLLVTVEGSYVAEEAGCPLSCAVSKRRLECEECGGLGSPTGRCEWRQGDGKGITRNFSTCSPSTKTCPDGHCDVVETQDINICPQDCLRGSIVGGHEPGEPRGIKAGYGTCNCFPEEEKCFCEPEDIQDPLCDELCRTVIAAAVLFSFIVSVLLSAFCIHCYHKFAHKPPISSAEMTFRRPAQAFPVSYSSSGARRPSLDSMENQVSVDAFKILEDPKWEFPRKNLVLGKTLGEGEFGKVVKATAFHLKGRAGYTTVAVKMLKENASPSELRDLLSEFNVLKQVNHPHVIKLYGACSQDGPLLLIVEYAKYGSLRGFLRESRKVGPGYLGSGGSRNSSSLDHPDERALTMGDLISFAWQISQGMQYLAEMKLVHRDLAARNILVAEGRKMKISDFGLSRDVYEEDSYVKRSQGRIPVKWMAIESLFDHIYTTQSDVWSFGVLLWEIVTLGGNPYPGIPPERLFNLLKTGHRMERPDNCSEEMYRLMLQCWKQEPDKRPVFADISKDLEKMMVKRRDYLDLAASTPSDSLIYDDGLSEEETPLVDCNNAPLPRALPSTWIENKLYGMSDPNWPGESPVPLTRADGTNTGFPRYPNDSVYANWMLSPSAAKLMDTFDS
- Experiment Summary: Assay of small molecular compounds for inhibiting the activity of RET kinase (LANCE TR-FRET)
pIC50: −log10 of the molar value.
Readout Name: pIC50

1) COCCOc1cc2nccc(Oc3ccc(NC(=O)Nc4ccc(Cl)c(C(F)(F)F)c4)c(F)c3)c2c2c1OCCO2: > 7.30
2) COCCCOc1cc2nccc(Oc3ccc(NC(=O)NC4CCCC4)c(Cl)c3)c2c2c1OCCO2: 6.30 to 7.30
3) COCCCOc1cc2nccc(Oc3ccc(NC(=O)Nc4ccc(Cl)c(C(F)(F)F)c4)c(F)c3)c2c2c1OCCO2: 6.30 to 7.30
4) COCCOc1cc2nccc(Oc3ccc(NC(=O)NC4CCCC4)c(Cl)c3)c2c2c1OCCO2: > 7.30
